System: Caco-2
methodDescription: cell viability relative to DMSO; higher = less toxic
conditionDetails: 72 h; 10000 nM
I'd be grateful if you could share measured cell viability for these entries.
Dear colleague, please return just the value in %, with no unit written.

Query: Let me know recorded cell viability for CC(C)(C)c1ccc(CN2CCN(C(c3ccccc3)c3ccc(Cl)cc3)CC2)cc1 (centres undefined) [buclizine] , thanks.
Reply: 87.5

Query: Give the value of cell viability reported for the following: CN1CCN(C2=Cc3ccccc3Oc3ccc(Cl)cc32)CC1 [2-CMDO]
Reply: 92.3

Query: Using known records, supply cell viability for O=C(Nc1ccncc1)C(=O)c1cn(Cc2ccc(Cl)cc2)c2ccccc12 [indibulin]
Reply: 92.2

Query: Give reported cell viability value for CC[N+](CC)(CCCNC1=CC(=O)C(NCCC[N+](CC)(CC)Cc2ccccc2)=CC1=O)Cc1ccccc1 [benzoquinonium-dibromide]
Reply: 91.7

====

Test system: Vero E6
methodDescription: cell viability relative to DMSO; higher = less toxic
conditionDetails: 72 h; 1 nM
Where a name gives a salt, the structure may show the parent alone.
Hi there, I'd appreciate the recorded cell viability for every entry that follows.
Provide the reading as a plain figure in %.

Query: Identify measured cell viability corresponding to N=C(NCCCCCCNC(=N)NC(=N)Nc1ccc(Cl)cc1)NC(=N)Nc1ccc(Cl)cc1 [chlorhexidine]
Reply: 96.5

Query: Hello, please tell me recorded cell viability for this one: N=c1ccn2c(n1)O[C@H]1[C@H](O)[C@@H](CO)O[C@H]12 [Cyclocytidine HCl]
Reply: 98.1

Query: Specify measured cell viability for NC(=O)c1cn([C@@H]2O[C@H](CO)[C@@H](O)[C@H]2O)c2ncnc(N)c2c1=O [API-1] .
Reply: 97

Query: Return cell viability (reported value) for this molecule: CC(CNC(=O)c1cccnc1)NC(=O)c1cccnc1 (configuration not stated) [nicaraven]
Reply: 93.8

Query: Report cell viability, nothing else, for this molecule: FC(F)(F)C(F)(F)C(F)(F)C(F)(F)C(F)(F)C(F)(F)C(F)(F)C(F)(F)Br [perflubron]
Reply: 109

Query: Hello, please tell me recorded cell viability for this one: COC(=O)C1=C(C)NC(C)=C(C(=O)OCC(C)C)C1c1ccccc1[N+](=O)[O-] (configuration not stated) [nisoldipine]
Reply: 100

Query: Please report cell viability for the following molecule: N#Cc1c[nH]c2c(C(=O)N3CCN(CCc4ccc(F)cc4)CC3)cccc12 [pruvanserin]
Reply: 105

Query: Give the reported value of cell viability for this record: `N[C@@H](CC(=O)Nc1ccc(Oc2cc(F)c(F)cc2Br)cc1)C(=O)O`
Reply: 91

Query: Item Cc1ccc(-c2ncn(-c3ccc(Nc4nccc(-c5cccc(N6CCOCC6)c5)n4)cc3)n2)cn1 [SR-3306] : provide cell viability
Reply: 109

Query: Answer with the recorded cell viability for the molecule listed here: CC(C)(C)c1cc(/C=C(\C#N)C(N)=S)cc(C(C)(C)C)c1O [tyrphostin-AG-879]
Reply: 97.4

Query: Give cell viability for NC(N)=Nc1nc(CSCCN/C=N/S(=O)(=O)c2ccc(Br)cc2)cs1 [ebrotidine]
Reply: 88.7

Query: Find the measured cell viability of CN(NC(=O)CC(=O)NN(C)C(=S)c1ccccc1)C(=S)c1ccccc1 [elesclomol] and report it.
Reply: 91.5

====

Tested on: Calu-3
methodDescription: cell viability relative to DMSO; higher = less toxic
conditionDetails: 72 h; 100 nM
measuredParameter: cell viability (%)
Quick reminder: number only, in %, skip the unit.

Query: Indicate the recorded cell viability value for this compound: `CC(=O)O/N=C1\C(=O)N(Cc2cc(Cl)ccc2Cl)c2ccc(Cl)cc21`
Reply: 93.9

Query: Give me measured cell viability, please, for this compound: `COc1cccc(OCCCN)c1-c1cc(Nc2cnc(C#N)cn2)n[nH]1`
Reply: 69.6

Query: Let me know recorded cell viability for `CCCC[C@H](NC(=O)[C@@H]1[C@@H]2[C@H](CN1C(=O)[C@@H](NC(=O)NC1(CS(=O)(=O)C(C)(C)C)CCCCC1)C(C)(C)C)C2(C)C)C(=O)C(=O)NC1CC1` , thanks.
Reply: 92.5

Query: Please give the documented cell viability of CN1C(=O)C(N2CCCCC2)S/C1=C\C(=O)O (stereo not drawn)
Reply: 94.1

Query: Please report the measured cell viability for `CN(NC(=O)CC(=O)NN(C)C(=S)c1ccccc1)C(=S)c1ccccc1`
Reply: 68.7

Query: Find the measured cell viability of `CN1C(=O)OC(C)(C)C1=O` and report it.
Reply: 97.9

Query: Entry `COc1ccc(/C=C/C(=O)/C=C(O)/C=C/c2ccc(OC)c(OC)c2)cc1OC` needs its cell viability filled in; supply it.
Reply: 110

Query: Identify measured cell viability associated with COP(=O)(OC)OC(c1ccc(Cl)cc1)P(=O)(OC)OC (stereo not drawn) [mifobate]
Reply: 85.1

Query: Report measured cell viability; entry is `C[C@H](CS)C(=O)N1CCC[C@H]1C(=O)O`
Reply: 93.4

Query: Give me measured cell viability, please, for this compound: `C#Cc1cccc(Nc2ncnc3cc(OC)c(OCCCCCCC(=O)NO)cc23)c1`
Reply: 81.5

Query: Assign cell viability to the following record: `O=C(Nc1ccc([N+](=O)[O-])cc1O)Nc1ccccc1Br`
Reply: 88.4

Query: Please list cell viability recorded for the compound `c1ccc2c(CCNc3ccc(Nc4ccncc4)cc3)c[nH]c2c1`
Reply: 105

Query: Give cell viability for `COc1cc(C(=S)N2CCOCC2)cc(OC)c1OC`
Reply: 102
